Attribution: BigSolDB 2.1

Details: in n-propanol, 288.15 K

- compoundStructureString: "COc1ccc(Cl)cc1C(=O)NCCc1ccc(S(=O)(=O)NC(=O)NC2CCCCC2)cc1"
  solubility (mole fraction): 0.000155

---

Settings: in n-propanol, 293.15 K

- compoundStructureString: "COc1ccc(Cl)cc1C(=O)NCCc1ccc(S(=O)(=O)NC(=O)NC2CCCCC2)cc1"
  solubility (mole fraction): 0.000193

---

Details: in isopropanol, 313.15 K

- compoundStructureString: "COc1ccc(Cl)cc1C(=O)NCCc1ccc(S(=O)(=O)NC(=O)NC2CCCCC2)cc1"
  solubility (mole fraction): 0.000404
